- target or test system: MST1(h) (Homo sapiens, UniProt Q13043)
- Construct: purchased Millipore
- Sequence (Q13043 1-487): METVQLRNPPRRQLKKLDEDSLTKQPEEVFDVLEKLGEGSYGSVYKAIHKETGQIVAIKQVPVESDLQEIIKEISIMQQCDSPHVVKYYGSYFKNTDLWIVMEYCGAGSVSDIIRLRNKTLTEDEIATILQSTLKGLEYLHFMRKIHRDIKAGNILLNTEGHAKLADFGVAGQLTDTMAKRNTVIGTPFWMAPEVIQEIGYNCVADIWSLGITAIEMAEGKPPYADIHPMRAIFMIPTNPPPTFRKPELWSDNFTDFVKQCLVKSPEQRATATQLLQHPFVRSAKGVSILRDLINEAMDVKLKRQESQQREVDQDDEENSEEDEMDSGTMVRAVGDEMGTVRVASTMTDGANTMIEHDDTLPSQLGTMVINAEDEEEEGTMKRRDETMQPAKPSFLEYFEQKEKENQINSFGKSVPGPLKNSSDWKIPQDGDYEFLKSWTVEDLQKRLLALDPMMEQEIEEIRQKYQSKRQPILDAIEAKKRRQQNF
- assay comment: Kinase Profiling Assay
- Assay type: biochemical
- condition set: peptide 100 μM

macromolecule sequence: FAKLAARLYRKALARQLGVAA [MMI-0300]
target or test system: MST1(h) (Homo sapiens, UniProt Q13043)
% activity / %: 14
--
macromolecule sequence: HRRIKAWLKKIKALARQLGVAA (Mammal) [MMI-0500]
target or test system: MST1(h) (Homo sapiens, UniProt Q13043)
% activity / %: 3
--
macromolecule sequence: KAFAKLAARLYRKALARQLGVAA [MMI-0400]
target or test system: MST1(h) (Homo sapiens, UniProt Q13043)
% activity / %: 6
--
macromolecule sequence: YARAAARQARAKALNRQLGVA (Mammal) [MMI-0200]
target or test system: MST1(h) (Homo sapiens, UniProt Q13043)
% activity / %: 72
